experiment summary: yeast display, Sf9 membrane polyspecificity reagent, FACS + sequencing; frameworks hold sequencing errors
measurement label: polyreactivity (PSR sort gate)

QVQLVESGGGLVQAGGSLRLSCAASGYTFTSNDMGWYRQAPGKERELFAAITRVGSTNYADSVKGRFTISRDNAKNTVYLQMNSLKPEDTAVYYCAADLWQRHYLVGFGIRYDYWGQGTQVTVSS | low polyreactivity
QVQLVESGGGLVQAGVSLRLSCAASGRISVFYTMGWYRQAPGKERELVAVNRTSGGRTNYADSVKGRFTISRDNAKNTVDLQMNSLKPEDTAVYYCAARVVRYGYKYYYWGQGTQVTVSS | low polyreactivity

---

experiment summary: yeast display, Sf9 membrane polyspecificity reagent, FACS + sequencing; frameworks hold sequencing errors
measurement label: polyreactivity (PSR sort gate)

QVQLVESGGGLVQAGGSLRLSCAASGSTFSGNAMGWYRQAPGKERELVAAISWSGDTTYYADSVKGRFTISRDNAKNTVYLQMNSLKPEDTAVYYCAVRYYWRRMNYWGQGTQVTVSS | high polyreactivity
QVQLVESAGGLVQAGGSHRLSCAPSGRIFGGNAMGWYRRAPGKERELVAGISRRGGSTYYADSVKGRFTITRDNAKNTVHLQMNSLKPEDTAVYYCNAYYRYSVFAEKYDYWGEGTQVTVSS | high polyreactivity

---

experiment summary: yeast display, Sf9 membrane polyspecificity reagent, FACS + sequencing; frameworks hold sequencing errors
measurement label: polyreactivity (PSR sort gate)

QVQLQESGGGLVQAGDSQRLSCAASGNIFRFTDMGWYRKAPGKERELVAAINAGSTTYYADSVKGRFTISRDNAKNTVYLQMNSLKPEDTAVYYCAVYYLGSGTFGYWGQGAQVTVSS | high polyreactivity
QVQLVESGGGLVQAGGSLRLSCAASGRTFSTYAMGGYRQAPGKERELVAVIRRDGSTSYADSVKGRFTISRDNAKNTVYLQMNSLKPEDTAVYYCAVTRRGEYYWGQGTQVTVSS | high polyreactivity

---

experiment summary: yeast display, Sf9 membrane polyspecificity reagent, FACS + sequencing; frameworks hold sequencing errors
measurement label: polyreactivity (PSR sort gate)

Solved entries (count: 4):
QVQLVESGGGLVQAGGSLRLSCAASGSIIVLNAMGWYRQAPGKERELVAAISSDGITYYADSVKGRFTISRDNAKNTVYLQKNSLKPEDTAVYYCAAYRVDYSDAYYYWGQGTQVTVSS | low polyreactivity
QVQLVESGGGLVQAGGSLRLSCAASGFTFAGYGMGWYRQAPGKERELVAAISSSGGSTYYADSVKGRFTISRDNAKNTVYLQMNSLIPEDTAVYYCAAGRPYGDGDYWGQGTQVNVSS | high polyreactivity
QVQLVESGGGLVQAGGSLRLSCAASGRIFQWYAMGWYRQAPGKERELVAAIRNGGTTNYADSVKGRFTISRDNAKNTVYLQMNSLKPEDTAVYYCNADKYRTWVFQPRYPGGYWGQGTQVTVSS | low polyreactivity
QVQLVESGGGLVQAGGSLRLSCAASGFIFEYYAMGWYRQAPGKERELVAAISSSGGSTYYADSVKGRFTISRDNAKITVYLQINSLKPEDTAVYYCAKDYAPSAKKLHYWGQGTQVTVSS | low polyreactivity

q: Output measured polyreactivity (PSR sort gate) for this item: `QVQLVESGVGLVQAGGSLRLSCAASGFTFQQYAMAWYRQAPGKERELVASISSSGGSTYYADSVKGRFTISRDNAKNTVYLQMNSLKPEDTAVYYCNARSWVRRYIYYYWGQGTQVTVSS`
a: high polyreactivity

Where do the numbers come from? From the nanobody polyreactivity screen of Harvey et al. (2022).
